Tested on: Kasumi-1
experimental protocol: CellTox Green cytotoxicity fluorescence relative to DMSO vehicle (fold of vehicle RFU); higher = more cell death (loss of membrane integrity), active = 2 or more
condition context: 0.1 µM; 48 h
Provide the reported CellTox Green cytotoxicity fluorescence of each item.
Give bare numbers.

Examples from the recorded data:
# compound, CellTox Green cytotoxicity fluorescence
records = [
    ("COc1cc(C(=O)N2CCC(N3CCN(C)CC3)CC2)ccc1Nc1ncc2c(n1)N(C)c1ccccc1C(=O)N2C", 0.983),
    ("O=C(COc1ccc(Cl)cc1)NC1CCC(NC(=O)COc2ccc(Cl)cc2)CC1 (stereo not drawn)", 0.965),
    ("CCC(CC)n1ccc2c(C(=O)NCc3c(C)cc(C)[nH]c3=O)cc(C#N)cc21", 0.956),
]

Hi there! I need CellTox Green cytotoxicity fluorescence for each item below, if you can.
1. COCC[n+]1c2c(n(Cc3cnccn3)c1C)C(=O)c1ccccc1C2=O [Sepantronium Bromide]
2. CC[C@@]1(O)C(=O)OCc2c1cc1n(c2=O)Cc2cc3cc(O)ccc3nc2-1 [(S)-10-Hydroxycamptothecin]
3. COc1cc(C(=O)O)ccc1NC(=O)[C@@H]1N[C@@H](CC(C)(C)C)[C@](C#N)(c2ccc(Cl)cc2F)[C@H]1c1cccc(Cl)c1F
4. CC(=O)O/N=C1/C(c2c(O)[nH]c3cc(Br)ccc23)=Nc2ccccc21
5. CN1CCN(Cc2ccc(Nc3ncc(Cl)c(Nc4ccccc4S(=O)(=O)N(C)C)n3)cc2)CC1

output:
1.41
1.07
0.949
1.04
1.34

====

System: CMK
experimental protocol: CellTox Green cytotoxicity fluorescence relative to DMSO vehicle (fold of vehicle RFU); higher = more cell death (loss of membrane integrity), active = 2 or more
condition context: 0.01 µM; 72 h
Quick rule: CellTox Green cytotoxicity fluorescence of at least 1 means TRUE, below that means FALSE.

Use the examples below as a reference point.
# compound, assigned category
data = [
    ("CNC(=O)c1ccc(Nc2ncc(C(F)(F)F)c(NCc3nccnc3N(C)S(C)(=O)=O)n2)cc1", "FALSE"),
    ("COc1cc(C(=O)O)ccc1NC(=O)[C@@H]1N[C@@H](CC(C)(C)C)[C@](C#N)(c2ccc(Cl)cc2F)[C@H]1c1cccc(Cl)c1F", "FALSE"),
]

input: Say whether `C/C(=N\NC(=O)c1cccc(S(=O)(=O)N2CCOCC2)c1)c1cc(Cl)ccc1O` shows CellTox Green cytotoxicity fluorescence of 1 or more.
output: TRUE

input: Say whether CCCCC(C=O)NC(=O)C(CC(C)C)NC(=O)C(CC(C)C)NC(C)=O (stereo not given) shows CellTox Green cytotoxicity fluorescence of 1 or more.
output: FALSE

input: Say whether `CC(C)c1ccccc1Cc1cc(C(=O)Nc2ccc(S(=O)(=O)c3ccccc3C(C)(C)C)cc2)c(O)c(O)c1O` shows CellTox Green cytotoxicity fluorescence of 1 or more.
output: FALSE

====

Test system: Kasumi-1
experimental protocol: CellTox Green cytotoxicity fluorescence relative to DMSO vehicle (fold of vehicle RFU); higher = more cell death (loss of membrane integrity), active = 2 or more
condition context: 0.01 µM; 24 h
endpoint label: CellTox Green cytotoxicity fluorescence
Give bare numbers.

Examples from the recorded data:
# compound, measured
data = [
    ("COC(=O)[C@H](CCSC)NC(=O)c1ccc(NC[C@@H](N)CS)cc1-c1ccccc1", 0.974),
    ("COc1cc(C(=O)N2CCC(N3CCN(C)CC3)CC2)ccc1Nc1ncc2c(n1)N(C)c1ccccc1C(=O)N2C", 1.05),
    ("O=C1CCC(N2C(=O)c3ccccc3C2=O)C(=O)N1 (stereo not drawn) [Thalidomide]", 0.98),
    ("CCOC(=O)c1[nH]c2cc(Cl)ccc2c1C(C(=O)NC(C)(C)C)N(C=O)Cc1ccc(Cl)cc1 (stereo not drawn)", 1.06),
    ("Cn1cc(-c2ccc3c(c2)CCN3C(=O)Cc2cccc(C(F)(F)F)c2)c2c(N)ncnc21", 1.07),
]

Hi there! I need CellTox Green cytotoxicity fluorescence for each item below, if you can.
1. FC(F)(F)c1ccc(CNc2ccc(Cc3c[nH]c4ncc(Cl)cc34)cn2)cn1
2. Fc1ccc(CNc2ncnc3ccc(F)cc23)cc1
3. CCOc1cc(C(C)(C)C)ccc1C1=N[C@@](C)(c2ccc(Cl)cc2)[C@@](C)(c2ccc(Cl)cc2)N1C(=O)N1CCN(CCCS(C)(=O)=O)CC1

output:
1: 0.99; 2: 1.03; 3: 0.977

====

Tested on: CMK
experimental protocol: CellTox Green cytotoxicity fluorescence relative to DMSO vehicle (fold of vehicle RFU); higher = more cell death (loss of membrane integrity), active = 2 or more
condition context: 0.1 µM; 48 h
Provide the reported CellTox Green cytotoxicity fluorescence of each item.
Numbers only.

Examples from the recorded data:
# sample smiles, measured
data = [
    ("CN1CCN(CCCNc2ncc(Cl)c(-c3cc4c(C(=O)NC5CC5)cccc4s3)n2)CC1", 0.978),
    ("CN(C)CCCCC(=O)Nc1ccc(NC(=S)NC(=O)c2ccc(C(C)(C)C)cc2)cc1", 0.991),
    ("CC(C)(C)C[C@@H]1N[C@@H](C(=O)N[C@H]2CC[C@H](O)CC2)[C@H](c2cccc(Cl)c2F)[C@]12C(=O)Nc1cc(Cl)ccc12", 0.971),
]

input: Name the reported CellTox Green cytotoxicity fluorescence value associated with the molecule `COc1nc(OCc2cccc(-c3ccccc3)c2C)ccc1CNCCNC(C)=O`
output: 0.951

====

Test system: CMK
experimental protocol: CellTox Green cytotoxicity fluorescence relative to DMSO vehicle (fold of vehicle RFU); higher = more cell death (loss of membrane integrity), active = 2 or more
condition context: 0.1 µM; 24 h
Structures can show the parent of a compound that is named as a salt.
endpoint label: CellTox Green cytotoxicity fluorescence
One number for each entry.

Examples from the recorded data:
# molecule, endpoint label, measured
records = [
    ("CC[C@@]1(O)C(=O)OCc2c1cc1n(c2=O)Cc2cc3cc(O)ccc3nc2-1 [(S)-10-Hydroxycamptothecin]", "CellTox Green cytotoxicity fluorescence", 1.56),
    ("Nc1nc(F)nc2c1ncn2[C@@H]1O[C@H](CO)[C@@H](O)[C@@H]1O [Fludarabine]", "CellTox Green cytotoxicity fluorescence", 0.981),
    ("NS(=O)(=O)C#Cc1ccccc1 [Pifithrin-m]", "CellTox Green cytotoxicity fluorescence", 1.01),
    ("Cc1cccc(CC(=O)N2CCc3c2ccc(-c2cn(C)c4ncnc(N)c24)c3F)n1", "CellTox Green cytotoxicity fluorescence", 1),
]

Hi there! I need CellTox Green cytotoxicity fluorescence for each item below, if you can.
1. CNC(=O)c1ccccc1Nc1cc(Nc2ccc(N3CCOCC3)cc2OC)ncc1C(F)(F)F
2. COc1c/c(=C2\C=c3ccccc3=N2)[nH]/c1=C\c1[nH]c(C)cc1C [Obatoclax Mesylate]
3. CCCCNc1ncc2c(-c3ccc(CN4CCN(C)CC4)cc3)cn([C@H]3CC[C@H](O)CC3)c2n1
4. Cn1cc(-c2ccc3c(c2)CCN3C(=O)Cc2cccc(C(F)(F)F)c2)c2c(N)ncnc21
5. CC1(C)CC[C@]2(NC(=O)C(C)(F)F)CC[C@]3(C)[C@H](C(=O)C=C4[C@@]5(C)C=C(C#N)C(=O)C(C)(C)[C@@H]5CC[C@]43C)[C@@H]2C1 [Omaveloxolone]
6. Nc1cccc2c1CN(C1CCC(=O)NC1=O)C2=O (configuration not stated) [Lenalidomide]
7. CN1CCN(Cc2ccc(Nc3ncc(Cl)c(Nc4ccccc4S(=O)(=O)N(C)C)n3)cc2)CC1
8. O=C(NS(=O)(=O)c1ccc(Br)s1)c1ccc(Cl)cc1Cl [Tasisulam]

output:
[0.928, 0.921, 1.07, 0.981, 0.98, 0.932, 1.07, 0.99]

Hi there! I need CellTox Green cytotoxicity fluorescence for each item below, if you can.
1. CC(C)[C@H](CO)Nc1nc(Nc2cccc(Cl)c2)c2ncn(C(C)C)c2n1 [Purvalanol A]
2. COC(=O)[C@H](CCSC)NC(=O)c1ccc(NC[C@@H](N)CS)cc1-c1ccccc1
3. O=C(COc1ccc(Cl)cc1)NC1CCC(NC(=O)COc2ccc(Cl)cc2)CC1 (configuration not stated)
4. COc1cc(C(=O)O)ccc1NC(=O)[C@@H]1N[C@@H](CC(C)(C)C)[C@](C#N)(c2ccc(Cl)cc2F)[C@H]1c1cccc(Cl)c1F [Idasanutlin]
5. c1ccc2c(CCNc3ccc(Nc4ccncc4)cc3)c[nH]c2c1 [Serdemetan]

output:
[0.992, 0.896, 0.975, 0.943, 0.95]

====

System: CMK
experimental protocol: CellTox Green cytotoxicity fluorescence relative to DMSO vehicle (fold of vehicle RFU); higher = more cell death (loss of membrane integrity), active = 2 or more
condition context: 1 µM; 72 h
Provide the reported CellTox Green cytotoxicity fluorescence of each item.
Numbers only.

# compound, CellTox Green cytotoxicity fluorescence
records = [
    ("O=C(COc1ccc(Cl)cc1)NC1CCC(NC(=O)COc2ccc(Cl)cc2)CC1 (centres undefined)", 1.01),
    ("CC(C)(C)C[C@@H]1N[C@@H](C(=O)N[C@H]2CC[C@H](O)CC2)[C@H](c2cccc(Cl)c2F)[C@]12C(=O)Nc1cc(Cl)ccc12", 1.01),
    ("CCO[C@@H]1OC(=O)C[C@@H]1NC(=O)[C@@H]1CCCN1C(=O)[C@@H](NC(=O)c1ccc(N)c(Cl)c1)C(C)(C)C", 1.03),
]

// next entry
input: Name the reported CellTox Green cytotoxicity fluorescence value associated with the compound `FC(F)(F)c1ccc(CNc2ccc(Cc3c[nH]c4ncc(Cl)cc34)cn2)cn1`
output: 0.967
